The values you see were collected from ChEMBL document CHEMBL3751753.

molecular target: Endothelin-1 receptor (Homo sapiens, UniProt P25101); test: Displacement of 125I-labelled endothelin-1 from human ETA receptor expressed in CHOK1 cell membranes
Sequence (P25101 whole entry): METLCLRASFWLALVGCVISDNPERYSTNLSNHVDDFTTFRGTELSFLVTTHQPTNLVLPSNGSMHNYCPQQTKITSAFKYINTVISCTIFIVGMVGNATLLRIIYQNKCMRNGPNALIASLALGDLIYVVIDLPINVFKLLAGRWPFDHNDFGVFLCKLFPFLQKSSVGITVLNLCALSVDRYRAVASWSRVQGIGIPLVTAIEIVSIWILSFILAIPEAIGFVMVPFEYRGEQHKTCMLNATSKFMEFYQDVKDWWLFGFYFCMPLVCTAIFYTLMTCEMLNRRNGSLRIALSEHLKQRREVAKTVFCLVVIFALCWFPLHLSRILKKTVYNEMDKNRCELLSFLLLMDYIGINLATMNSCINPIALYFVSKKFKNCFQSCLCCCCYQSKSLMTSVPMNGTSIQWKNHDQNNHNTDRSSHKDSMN
pIC50: −log10 of the molar value.
// reported pIC50 per item

Below, each entry is followed by its recorded pIC50 result.
{"smi": "CCCc1nc2c(C)cc(C(=O)NCc3ccc(OC)cc3)cc2n1Cc1ccc(-c2ccccc2C(=O)Nc2nnn[nH]2)cc1", "observed": "< 4.70"}
{"smi": "CCCc1nc2c(C)cc(C(=O)NC(C)(C)C)cc2n1Cc1ccc(-c2ccccc2C(=O)Nc2nnn[nH]2)cc1", "observed": "< 4.70"}
{"smi": "CCCc1nc2c(C)cc(C(=O)NCCc3ccc(OC)c(OC)c3)cc2n1Cc1ccc(-c2ccccc2C(=O)Nc2nnn[nH]2)cc1", "observed": "< 4.70"}

The molecule identified as `CCCc1nc2c(C)cc(C(=O)Nc3ccccc3)cc2n1Cc1ccc(-c2ccccc2C(=O)Nc2nnn[nH]2)cc1` registered its pIC50 at 4.85

* * *

Sequence of the target: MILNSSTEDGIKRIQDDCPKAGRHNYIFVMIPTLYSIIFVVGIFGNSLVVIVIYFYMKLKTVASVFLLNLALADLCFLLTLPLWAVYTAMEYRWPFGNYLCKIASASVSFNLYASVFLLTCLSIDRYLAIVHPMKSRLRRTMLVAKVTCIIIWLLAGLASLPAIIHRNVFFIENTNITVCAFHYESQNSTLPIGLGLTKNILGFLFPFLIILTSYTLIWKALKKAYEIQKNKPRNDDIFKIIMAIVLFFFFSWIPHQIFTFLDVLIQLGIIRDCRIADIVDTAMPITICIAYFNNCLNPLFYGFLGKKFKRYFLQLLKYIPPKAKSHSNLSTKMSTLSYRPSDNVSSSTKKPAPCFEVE
The following compounds are listed with their measured IC50 values.
Only the number, expressed in nM, is required.

{"smi": "CCCCNC(=O)c1cc(C)c2nc(CCC)n(Cc3ccc(-c4ccccc4C(=O)Nc4nnn[nH]4)cc3)c2c1", "observed": 439}
{"smi": "CCCc1nc2c(C)cc(C(=O)NCc3cccc(OC)c3)cc2n1Cc1ccc(-c2ccccc2C(=O)Nc2nnn[nH]2)cc1", "observed": 53.9}
{"smi": "CCCc1nc2c(C)cc(C(=O)NCCc3ccccc3OC)cc2n1Cc1ccc(-c2ccccc2C(=O)Nc2nnn[nH]2)cc1", "observed": 26.1}
{"smi": "CCCc1nc2c(C)cc(C(=O)NCCc3ccc(OC)cc3)cc2n1Cc1ccc(-c2ccccc2C(=O)Nc2nnn[nH]2)cc1", "observed": 87.8}
{"smi": "CCCc1nc2c(C)cc(C(=O)NCCc3ccc(OC)c(OC)c3)cc2n1Cc1ccc(-c2ccccc2C(=O)Nc2nnn[nH]2)cc1", "observed": 93}

Now for the compound whose IC50 we want.
Sure, the documented IC50 for `CCCc1nc2c(C)cc(C(=O)NCc3ccccc3OC)cc2n1Cc1ccc(-c2ccccc2C(=O)Nc2nnn[nH]2)cc1` is 73.3
